These entries and their values trace back to patent US7915223B2.

# TEST_DESCRIPTION: Hemolysis assay
# Assay type: cell-based, human
# TEST_CONDITIONS: red blood cells (RBC); lytic concentration inducing 50% lysis of human red blood cells in PBS; read-out: LC50 (the source's name)
Ends that are not written are not given here.
MEASUREMENT_TYPE: HC50 (µM)
Expressed in µM, but write only the number.

Q: Request the reported HC50 associated with GIGKFLKKAKKFGKAFVKILKK-NH2 [MSI-78]
Result: 45
